# EXPERIMENTAL_PROTOCOL: Metabolic stability in rat liver microsomes (RLMs)
# CONDITION_INFO: rat, microsomes, RLM CL, R1, RLM CL, replicate R1, summary block
MEASURED_ENDPOINT: microsomal CLint (µL/min/mg)
Answers are plain numbers, in µL/min/mg.

Worked examples follow.
O=C1C[C@H]2CCCN2C(=O)[C@H](Cc2ccccc2)NC(=O)[C@@H](NC(=O)c2ccc(Cl)s2)CCSCc2cccc(n2)CSCCN1 : 52.1
O=C1C[C@H]2CCCN2C(=O)[C@H](Cc2ccccc2)NC(=O)[C@@H](NC(=O)c2ccc(Cl)s2)CCSC/C=C/CSCCN1 : 69.7

Exam item: For the compound O=C1C[C@H]2CCCN2C(=O)[C@H](Cc2ccccc2)NC(=O)[C@@H](NC(=O)c2ccc(Cl)s2)CCCSCc2cccc(n2)CSCCN1 , what microsomal CLint is on record?
Marked response: 79

---

# EXPERIMENTAL_PROTOCOL: Passive artificial membrane permeability (PAMPA)
# CONDITION_INFO: PAMPA, pH 7.4, PAMPA permeability: logPapp, 50 μM, 12–18 h
MEASURED_ENDPOINT: Papp at 50 μM (×10⁻⁶ cm/s)
One number for each entry, in ×10⁻⁶ cm/s.

Exam item: For the molecule CC(=O)CC(c1ccccc1)c1c(O)c2ccccc2oc1=O (stereo not shown) [Warfarin, warfarin, reference compound] , what Papp at 50 μM is on record?
Marked response: 4.57

---

# EXPERIMENTAL_PROTOCOL: Passive artificial membrane permeability (PAMPA)
# CONDITION_INFO: 50 μM, 12–18 h; acceptor concentration relative to equilibrium
So I've got a bunch of compounds here, and I need their PAMPA permeability: % permeability values.
Give bare numbers, in %.

Worked examples follow.
C[C@@H]1NC(=O)[C@@H](NC(=O)c2ccc(Cl)s2)CSCc2cccc(n2)CSCCNC(=O)[C@H]2CCCN(C2)C1=O : 27
O=C(N[C@H]1CSCCS(=O)(=O)CCSCCNC(=O)C2(CC2)CNC(=O)[C@H](Cc2ccccc2)NC1=O)c1ccc(Cl)s1 : 8.6

Pending compound:
Exam item: For the compound O=C1NCCSCc2cccc(n2)CSC[C@H](NC(=O)c2ccc(Cl)s2)C(=O)N[C@@H](CO)C(=O)NCc2cccc1c2 , what PAMPA permeability: % permeability is on record?
Marked response: 2.5

---

So I've got a bunch of compounds here, and I need their half-life values.
# EXPERIMENTAL_PROTOCOL: Metabolic stability in rat liver microsomes (RLMs)
# CONDITION_INFO: rat, microsomes, Half Life (min) R3, RLM metabolic stability; replicate R3; 0-60 min
Give bare numbers, in min.

O=C(N[C@H]1CSCc2cccc(n2)CSCCNC(=O)[C@H](Cc2ccccn2)NC(=O)C2(CCCC2)NC1=O)c1ccc(Cl)s1 [compound 28] : 17.8

For each entry beneath this line, provide reported half-life.
1. O=C(N[C@H]1CSCCS(=O)(=O)CCSCCNC(=O)C2(CC2)CNC(=O)[C@H](Cc2ccccc2)NC1=O)c1ccc(Cl)s1 [compound 16]
2. O=C1NCCSCc2cccc(n2)CSCCC(=O)N2CCC[C@H]2C(=O)N2CCN(C(=O)c3ccc(Cl)s3)CC12 (stereo partly shown) [compound 23]
3. O=C1CC2CCN(CC2)C(=O)[C@H](Cc2ccccc2)NC(=O)[C@@H](NC(=O)c2ccc(Cl)s2)CSCCS(=O)(=O)CCSCCN1 [compound 13]
4. C[C@@H]1NC(=O)[C@@H](NC(=O)c2ccc(Cl)s2)CSCc2cccc(n2)CSCCNC(=O)c2ccc(cc2)CNC1=O [compound 26]

Marked response:
22.3
18
9.38
10.8

Exam item: For the compound O=C1NCCSCc2cccc(n2)CSC[C@H](NC(=O)c2ccc(Cl)s2)C(=O)N[C@@H](CO)C(=O)NCc2ccc1cc2 [compound 25] , what half-life is on record?
Marked response: 12.4
